Would you mind telling me the reported koff of each entry?
assayed_system: T1, SARS-CoV-2 Receptor Binding Domain (RBD) protein (SARS-CoV-2, UniProt P0DTC2 319-541)
T1 construct: also called Sars-Cov-2 (COV2)
protocol_details: SPR (Carterra LSA); scFv captured by anti-V5, RBD as analyte
Please respond with the number in s⁻¹ and leave the unit unwritten.

Give the reported koff for this binder. COVID19_P14_D07 (scFv, V domains shown) VH: QVQLVQSGAEVKKPGSSVKVSCKASGYTFSSFYIHWVRQAPGQGLEWMGGIIPIFGEAEYAHKFQGRVTITADESTSTAYMELSSLRSEDTAVYYCAMETVMGGMDVWGQGTLVTVSS VL: SSYVLTQPPSVSVAPGKTARITCGGNNIGSKSVHWYQQKPGQAPVLVIYYDSDRPSGIPERFSGSNSGNTATLTISRVEAGDEADYYCQVWDSSSDYVFGGGTKLTVLA
0.00232

Give the reported koff for this binder. COVID19_P02_H04 (scFv, V domains shown) VH: QVQLVQSGAEVKKPGSSVKVSCKASGYTFSSFHINWVRQAPGQGLEWMGGITPIFGIANYAQKFQGRVTITADESTSTAYMELSSLRSEDTAVYYCALETVMGGMDVWGQGTLVTVSS VL: SSYVLTQPPSVSVAPGKTARITCGGNNIGSKSVHWYQQKPGQAPVLVIYYDSDRPSGIPERFSGSNSGNTATLTISRVEAGDEADYYCQSWDSSGDYVFGGGTKLTVLA
0.00781

Give the reported koff for this binder. COVID19_P01_E11 (scFv, V domains shown) VH: QVQLVQSGAEVKKPGSSVKVSCKASGGTFSNYTITWVRQAPGQGLEWLGWISAYNGNTDYAQKLQGRVTITADESTSTAYMELSSLRSEDTAVYYCARDALMGGMDVWGQGTLVTVSS VL: SSYVLTQPPSVSVAPGKTARITCGGNNIGSKSVHWYQQKPGQAPVLVIYYDSDRPSGIPERFSGSNSGNTATLTISRVEAGDEADYYCQVWDSRSDYVFGGGTKLTVLA
0.000586
